Reported values of inhibition at 30 mg/kg for individual entries
- Tested on: neutrophil influx (myeloperoxidase activity) in arachidonic acid-treated ear
- protocol.description: Murine arachidonic acid-induced inflammation model: neutrophil influx by myeloperoxidase (MPO) activity in ear biopsies
- Format: in vivo, mouse (female Balb/c)
- test.context: Mus musculus, TABLE 8, 30 mg/kg oral gavage, ear biopsies 3 h after topical arachidonic acid (given 60 min after dose), read-out: % Inh. MPO
API: value field is a number in %; no unit string.

The following compounds have reported results that may help.
O=C1C[C@H](O)CN1C1CCN(Cc2ccc(Oc3nc4ccccc4s3)cc2)CC1 [Example 447] :: 48
O=C(CO)N1CCN(CCc2ccc(Oc3nc4ccccc4s3)cc2)CC1 [Example 325] :: 67
OCC1CCCCN1CCOc1ccc(Oc2nc3ccccc3s2)cc1 (centres unmarked) [Example 263] :: 19
NC(=O)C1CCN(Cc2ccc(Oc3nc4ccccc4s3)cc2)CC1 [Example 274] :: 87
O=C(O)C1CCN(CCc2ccc(Oc3nc4ccccc4s3)cc2)CC1 [Example 150] :: 91
O=C1C[C@@H](O)CN1C1CCN(Cc2ccc(Oc3nc4ccccc4s3)cc2)CC1 [Example 446] :: 43
O=C(O)C1CCCN(CCc2ccc(Oc3nc4ccccc4s3)cc2)C1 (centres unmarked) [Example 155] :: 93
O=C(O)C1CCN(Cc2ccc(Oc3nc4ccccc4s3)cc2)CC1 [Example 250] :: 94

# get_value(readout='inhibition at 30 mg/kg', item= c1ccc2sc(Oc3ccc(OCCn4nnnc4C4CCNCC4)cc3)nc2c1 [Example 206] )
76

# get_value(readout='inhibition at 30 mg/kg', item= CS(=O)(=O)NC1CCN(Cc2ccc(Oc3nc4ccccc4s3)cc2)CC1 [Example 361] )
90

# get_value(readout='inhibition at 30 mg/kg', item= O=C1C[C@H](O)CN1C1CCN(CCc2ccc(Oc3nc4ccccc4s3)cc2)CC1 [Example 336] )
0
